# pIC50 values compiled below
ASSAY REMARKS: Cytotoxicity against human CXF 1103L cells after 4 days by propidium iodide staining
EXPERIMENTAL CONDITIONS: 96 h
pIC50: −log10 of the molar value.
MEASURED ATTRIBUTE: pIC50

SMILES STR | MEASURED ATTRIBUTE | VALUE REPORTED
CCCCn1c(-c2ccccc2Cl)cn2c3c(=O)[nH]c(=O)n(C)c3nc12 | pIC50 | 5.94
Cc1nc(Nc2ncc(C(=O)Nc3c(C)cccc3Cl)s2)cc(N2CCN(CCO)CC2)n1 | pIC50 | 5.36
CCCCn1c(-c2ccccc2C)cn2c3c(=O)[nH]c(=O)n(C)c3nc12 | pIC50 | 5.34
CCCCn1c(-c2ccc(F)cc2C)cn2c3c(=O)[nH]c(=O)n(C)c3nc12 | pIC50 | 5.39
COc1ccccc1-n1c(-c2cc(O)ccc2C)cn2c3c(=O)[nH]c(=O)n(C)c3nc12 | pIC50 | 4.49
CCCCCn1c(-c2ccccc2C)cn2c3c(=O)[nH]c(=O)n(C)c3nc12 | pIC50 | 5.59
